test system: OVCAR-5 ovarian; assay: NCI tumour cell line growth inhibition, 48 h
Decide by TGI: equal to or exceeding 30 µM means TRUE, less means FALSE.

Molecule: S=c1[nH]nc(CCCCCCCCc2n[nH]c(=S)o2)o1
Class label: TRUE
--
Molecule: O=C(c1ccccc1)C(Br)C(Br)c1ccccc1 (stereo not given)
Class label: FALSE
--
Molecule: CC(C)=CCc1c2c(c(O)c3c(=O)c4c(oc13)-c1ccc(O)cc1OC4C=C(C)C)C=CC(C)(C)O2 (stereo not given)
Class label: TRUE
--
Molecule: Clc1cc2ncn(C3CCCCO3)c2cc1Cl (stereo not given)
Class label: TRUE
--
Molecule: COc1cc(OC)cc(-c2ccc(-c3ccc(C(=N)N)cn3)s2)c1
Class label: FALSE
--
Molecule: OCC#Cc1ccccc1C#Cc1ccc(C#Cc2ccccc2)cc1
Class label: TRUE
--
Molecule: C=CCOC(=O)N1c2ccc(O)cc2[C@@]23O[C@@]24[C@@H]1C#C/C=C\C#C[C@]3(O)C(=O)C[C@@H]4C
Class label: TRUE
--
Molecule: Clc1ccc2c(NCCCN3CCN(c4nc(N5CCOCC5)nc5ccccc45)CC3)ccnc2c1
Class label: FALSE
--
Molecule: COC(=O)c1ccccc1C1CN=NC12Cc1c(C)ccc(C)c1C2=O (stereo not given)
Class label: TRUE
--
Molecule: O=c1[nH]c2ccc([N+](=O)[O-])c(Cl)c2c2ccccc12
Class label: TRUE

====

system: SK-MEL-28 melanoma; assay: NCI tumour cell line growth inhibition, 48 h
Where a SMILES comes first, the peptide text is derived from it. The star is where a group is joined. Cbz = O=C(OCc1ccccc1)*; Boc = CC(C)(C)OC(=O)*; OSu = O=C1CCC(=O)N1O*; Bn = c1ccc(C*)cc1
Recorded TGI by entry

Compound: COc1ccc(Cc2nc3cc(OC)c(OC)cc3c(=O)[nH]2)cc1
Experimental target: SK-MEL-28 melanoma
TGI: 65.1 µM
--
Compound: COC(=O)c1sc(=NC(=S)N2CCCCC2)sc1C(=O)OC
Experimental target: SK-MEL-28 melanoma
TGI: > 100 µM
--
Compound: CCOC(=O)C1C(c2ccc(OC)cc2)c2c([nH]n(-c3ccccc3)c2=O)CC1(C)O (stereo not drawn)
Experimental target: SK-MEL-28 melanoma
TGI: > 100 µM
--
Compound: COc1ccc(/C(C)=C(\c2ccc(Cl)cc2)c2ccc(OCCN3CCCCCC3)cc2)cc1F
Experimental target: SK-MEL-28 melanoma
TGI: 4.9 µM
--
Compound: N#CC(NC(=O)CCl)=C(Cl)Cl
Experimental target: SK-MEL-28 melanoma
TGI: 3.03 µM
--
Compound: CN(C)c1ccc(C2CC(C)(O)Oc3cc4c(cc32)OCO4)cc1 (stereo not drawn)
Experimental target: SK-MEL-28 melanoma
TGI: > 100 µM
--
Compound: CC[C@@]12CCC(=S)N(CCSc3ccccc3)[C@@H]1c1c(n(S(=O)(=O)c3ccc(OC)cc3)c3ccccc13)CC2
Experimental target: SK-MEL-28 melanoma
TGI: > 100 µM
--
Compound: O=C(NCc1ccccc1Cl)c1c(O)c2ccccc2[nH]c1=O
Experimental target: SK-MEL-28 melanoma
TGI: > 100 µM
--
Compound: CC(C)(C)OC(=O)NC(Cc1ccc(OCc2ccccc2)cc1)C(=O)NC(CCCCNC(=O)OCc1ccccc1)C(=O)NC(CCCCNC(=O)OCc1ccccc1)C(=O)ON1C(=O)CCC1=O (stereo not drawn) (Boc-Tyr(Bn)-Lys(Cbz)-Lys(Cbz)-OSu; configuration not given here)
Experimental target: SK-MEL-28 melanoma
TGI: > 100 µM
--
Compound: COc1cc(/C=C2/Oc3c(OC)cccc3C2=O)ccc1O
Experimental target: SK-MEL-28 melanoma
TGI: > 100 µM
--
Compound: C=CCN=C(N/N=C/c1ccc([N+](=O)[O-])o1)NS(=O)(=O)c1cc(C(=O)Nc2ccccc2)c(Cl)cc1SCC(N)=O
Experimental target: SK-MEL-28 melanoma
TGI: > 100 µM
--
Compound: CCOC(=O)c1cn(CC)c2ccc3c(c2c1=O)S(=O)(=O)C=C3
Experimental target: SK-MEL-28 melanoma
TGI: > 100 µM
--
Compound: Nc1ccc(C(=O)/C=C/c2ccccc2O)cc1
Experimental target: SK-MEL-28 melanoma
TGI: > 100 µM
--
Compound: Nc1ncnc2c1nc(Cl)n2C1OC(CO)C(O)C1O (stereo not drawn)
Experimental target: SK-MEL-28 melanoma
TGI: > 100 µM
--
Compound: O=C(OC[C@@H]1CO1)c1cccc2c(=O)c3ccccc3[nH]c12
Experimental target: SK-MEL-28 melanoma
TGI: 2.07 µM
--
Compound: COC(=O)[C@H](Cc1cn(C)cn1)NC(=O)[C@@H](NC(=O)Nc1cc(C(F)(F)F)cc(C(F)(F)F)c1)C(C)C
Experimental target: SK-MEL-28 melanoma
TGI: 4.99 µM
--
Compound: N#CCC1(n2cc(-c3ncnc4[nH]ccc34)cn2)CN(C2CCN(C(=O)c3ccnc(C(F)(F)F)c3F)CC2)C1
Experimental target: SK-MEL-28 melanoma
TGI: > 100 µM
--
Compound: Oc1ccccc1C=Nc1nc(OCc2ccccc2)nc2[nH]ncc12
Experimental target: SK-MEL-28 melanoma
TGI: 43.1 µM
--
Compound: c1cncc(C2ONC3=NCCN32)c1 (stereo not drawn)
Experimental target: SK-MEL-28 melanoma
TGI: > 100 µM
--
Compound: OCCCCC#Cc1ccccc1C#Cc1ccc(C(F)(F)F)cc1
Experimental target: SK-MEL-28 melanoma
TGI: 21.7 µM
--
Compound: COc1ccc(/C=C/C(C)=N/OCC(=O)Nc2ccc(Cl)cc2)cc1
Experimental target: SK-MEL-28 melanoma
TGI: 31.6 µM
--
Compound: CN(C)c1ccc(N=C2C=CC(=C(C#N)C#N)c3ccccc32)cc1
Experimental target: SK-MEL-28 melanoma
TGI: 20.5 µM
--
Compound: CN(C)c1ccc(O[Si](Oc2ccc(N(C)C)cc2)(Oc2ccc(N(C)C)cc2)Oc2ccc(N(C)C)cc2)cc1
Experimental target: SK-MEL-28 melanoma
TGI: > 100 µM
